experiment: reversal of MRP1-mediated doxorubicin resistance, pilot screen, H69AR cells, doxorubicin co-treatment (AID 601); details: H69AR cells, CellTiter-Glo, 72 h; compound alone cytotoxicity; at 10 µM
# viability per record follows
Report only the number, with the unit % understood.

Would you please look over these solved cases?
- molecule: "Cc1ccc(O)c(NC(=O)COc2cc(C)ccc2C)c1"
  viability (%): 89.4
- molecule: "CCCOC(=O)C1[C@H]2C(=O)N(CCCOC)C[C@]23C=C[C@H]1O3 (stereo partly drawn)"
  viability (%): 98.3
- molecule: "CC(=O)N1CCN(C(C)=O)C1c1ccccc1"
  viability (%): 91.4

Ask: Could you share which viability value was measured for COc1ccccc1C1CC(c2ccc(C)cc2)Nc2ncnn21 (stereo not drawn) ?
Result: 102

Ask: Could you share which viability value was measured for CCOc1cc(C(=O)NCc2ccncc2)cc(OCC)c1OCC ?
Result: 90.7

Ask: Could you share which viability value was measured for CCn1c(=O)cc(SCC(=O)N2CCN(C3CCCCC3)CC2)c2ccccc21 ?
Result: 83.5

Ask: Could you share which viability value was measured for Nn1c(CSc2nc3ccccc3o2)nnc1CSc1nc2ccccc2o1 ?
Result: 103

Ask: Could you share which viability value was measured for CC(C(=O)NCc1cccnc1)N1C(=O)c2ccccc2C1=O (stereo not drawn) ?
Result: 93.7

Ask: Could you share which viability value was measured for CCOC(=O)N1CCN(S(=O)(=O)c2ccc(OCC)c(C)c2)CC1 ?
Result: 103

Ask: Could you share which viability value was measured for Cc1[nH]c(=O)[nH]c(=O)c1S(=O)(=O)N1CCCC(C(=O)NCc2ccco2)C1 (stereo not drawn) ?
Result: 86.4

Ask: Could you share which viability value was measured for C=C(Cl)COC(=O)[C@H]1C2C=CC(C2)C1C(=O)O (stereo partly drawn) ?
Result: 101

Ask: Could you share which viability value was measured for CCOC(=O)c1sc2nc(C)cc(C)c2c1N ?
Result: 98.4
